Target: GPR3 (Homo sapiens)
Assay: cell-based cAMP Glo-Sensor assay (no significant activity in purified GTP turnover assay)
Sequence (P46089 whole entry): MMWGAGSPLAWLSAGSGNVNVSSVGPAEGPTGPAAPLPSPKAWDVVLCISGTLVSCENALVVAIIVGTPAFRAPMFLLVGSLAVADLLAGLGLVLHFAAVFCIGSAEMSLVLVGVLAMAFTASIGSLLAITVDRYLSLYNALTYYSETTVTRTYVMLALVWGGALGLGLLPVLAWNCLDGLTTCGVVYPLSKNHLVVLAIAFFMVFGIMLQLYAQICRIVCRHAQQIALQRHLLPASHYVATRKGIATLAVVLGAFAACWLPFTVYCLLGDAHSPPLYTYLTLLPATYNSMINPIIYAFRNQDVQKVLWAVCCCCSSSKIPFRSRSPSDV
value kind: pEC50
A value of pEC50 is the negative decimal logarithm of a concentration given in moles per litre.

Q: Report pEC50 for CCCCCCCC/C=C\CCCCCCCC(N)=O [oleamide] please.
Result: 5.25

====

Target: GPR3 (Homo sapiens, UniProt P46089)
Assay: cryo-EM structure ([…] Å), SPR, MS of co-purified ligand; GTP turnover on purified complex; EC50 from cell-based cAMP Glo-Sensor assay
Set-up: GPR3–Gs–scFv16 complex; with Gs heterotrimer (scFv16-stabilised)
value kind: pEC50
Kindly note that pEC50 refers to -log10 of the concentration in mol/L and answer with the value alone.

Q: Recorded pEC50 for CCCCCCCC/C=C\CCCCCCCC(=O)NCCO [OEA, oleoylethanolamide] , please?
Result: 5.60
